Molecular target: Nuclear factor erythroid 2-related factor 2 (Homo sapiens) (UniProt Q16236)
Sequence (Q16236 whole entry): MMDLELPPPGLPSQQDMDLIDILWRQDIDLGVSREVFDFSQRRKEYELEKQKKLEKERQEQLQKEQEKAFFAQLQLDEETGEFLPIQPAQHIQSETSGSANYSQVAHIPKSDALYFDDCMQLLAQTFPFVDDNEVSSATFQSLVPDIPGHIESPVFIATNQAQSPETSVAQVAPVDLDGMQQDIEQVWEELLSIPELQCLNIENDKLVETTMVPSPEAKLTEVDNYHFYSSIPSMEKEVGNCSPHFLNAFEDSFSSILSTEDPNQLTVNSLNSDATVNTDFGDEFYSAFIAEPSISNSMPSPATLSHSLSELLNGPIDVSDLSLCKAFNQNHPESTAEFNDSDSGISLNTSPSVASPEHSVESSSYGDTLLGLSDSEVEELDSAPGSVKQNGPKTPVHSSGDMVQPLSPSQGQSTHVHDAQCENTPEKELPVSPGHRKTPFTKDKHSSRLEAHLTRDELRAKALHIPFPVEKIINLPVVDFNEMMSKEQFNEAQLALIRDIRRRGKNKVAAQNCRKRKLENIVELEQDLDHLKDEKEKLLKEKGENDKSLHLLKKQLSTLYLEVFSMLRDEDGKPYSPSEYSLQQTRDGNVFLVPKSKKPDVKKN
Assay: Agonist activity at Nrf2 (unknown origin) at 20 uM by dual-luciferase reporter gene assay
Conditions: filed as agonist
The entries below come with measured fold change (FC) values attached.
Please state the value as a number alone, without comment.

Some solved entries appear below for comparison.
smiles	fold change (FC)
CC(C)=CCc1c(OC(=O)Cc2c[nH]c3ccc(C)cc23)ccc2ccc(=O)oc12	1.51
CC(C)=CCc1c(OC(=O)NCCc2c[nH]c3ccc(C)cc23)ccc2ccc(=O)oc12	0.95

Continue with the next molecule.
// map COc1ccc(-c2cc3cc(Br)c4c(c3oc2=O)CCC(C)(C)O4)cc1 to recorded fold change (FC) (system: Nuclear factor erythroid 2-related factor 2 (Homo sapiens) (UniProt Q16236)) 1.53
